IC50: recorded values
- system under test: human recombinant BACE1 (Homo sapiens (Human), UniProt P56817)
- Sequence (P56817 46-501): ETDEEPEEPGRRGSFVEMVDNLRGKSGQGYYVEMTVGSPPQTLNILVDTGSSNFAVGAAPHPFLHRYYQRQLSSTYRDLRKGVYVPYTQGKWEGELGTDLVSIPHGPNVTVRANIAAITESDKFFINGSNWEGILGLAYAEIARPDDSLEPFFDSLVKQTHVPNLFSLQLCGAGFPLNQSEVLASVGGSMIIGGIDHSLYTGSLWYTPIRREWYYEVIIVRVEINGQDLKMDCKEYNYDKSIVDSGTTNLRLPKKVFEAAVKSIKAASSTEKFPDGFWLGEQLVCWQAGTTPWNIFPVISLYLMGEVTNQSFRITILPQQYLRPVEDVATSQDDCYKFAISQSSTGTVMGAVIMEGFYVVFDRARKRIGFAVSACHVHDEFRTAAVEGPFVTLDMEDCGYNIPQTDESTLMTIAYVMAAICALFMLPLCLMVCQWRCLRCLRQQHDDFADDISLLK
- test description: In vitro enzymatic BACE1 FRET assay
- Type: biochemical
- setup conditions: read-out: IC50 IP (μM) BACE1 enzyme
- Method: These recombinant proteins were further purified using Ni-NTA affinity chromatography (Qiagen). […] This assay is effectively started by the addition of FRET substrate (50 nM) and the combination is incubated for one hour. The FRET assay is terminated by addition of Tris buffer, which raises the pH to neutrality, and the fluorescence is determined. […] Proteolytic cleavage of the FRET substrate releases quenching of fluorescence (excitation 488 nm and emission 590 nm).
result type: IC50 (µM)

[
  {
    "molecule": "C[C@]1(c2cc(Nc3nccc4nc(OCCCF)cnc34)cc(F)c2F)N=C(N)S[C@@]2(C(F)F)C[C@@H]12 [Example 871]",
    "system under test": "human recombinant BACE1 (Homo sapiens (Human), UniProt P56817)",
    "result type": "IC50",
    "test value": 0.0183
  },
  {
    "molecule": "CC#CCCOc1cnc(C(=O)Nc2cc(F)c(F)c([C@@]3(C)N=C(N)S[C@@]4(COC)C[C@H]43)c2)cn1 [Example 1059]",
    "system under test": "human recombinant BACE1 (Homo sapiens (Human), UniProt P56817)",
    "result type": "IC50",
    "test value": 0.011
  },
  {
    "molecule": "C[C@]1(c2cc(NC(=O)c3ccc(OCC(F)(F)F)cn3)cc(F)c2F)N=C(N)S[C@@]2(CF)C[C@H]21 [Example 692]",
    "system under test": "human recombinant BACE1 (Homo sapiens (Human), UniProt P56817)",
    "result type": "IC50",
    "test value": 0.0053
  },
  {
    "molecule": "COC[C@]12C[C@H]1[C@@](C)(c1cc(NC(=O)c3cnc(Cl)cn3)cc(F)c1F)N=C(N)S2 [Example 1007]",
    "system under test": "human recombinant BACE1 (Homo sapiens (Human), UniProt P56817)",
    "result type": "IC50",
    "test value": 0.00702
  },
  {
    "molecule": "C#CCOc1cnc2c(Nc3cc(F)c(F)c([C@@]4(C)N=C(N)S[C@@]5(COC)C[C@H]54)c3)ncc(F)c2c1 [Example 951]",
    "system under test": "human recombinant BACE1 (Homo sapiens (Human), UniProt P56817)",
    "result type": "IC50",
    "test value": 0.00233
  },
  {
    "molecule": "C[C@]1(c2cc(Nc3nccc4nc(OCc5ncco5)cnc34)ccc2F)N=C(N)S[C@]2(CO)[C@H]1C2(F)F [Example 705]",
    "system under test": "human recombinant BACE1 (Homo sapiens (Human), UniProt P56817)",
    "result type": "IC50",
    "test value": 0.00186
  },
  {
    "molecule": "COC[C@]12C[C@H]1[C@@](C)(c1cc(NC(=O)c3ncc(OCc4ncco4)nc3C)ccc1F)N=C(N)S2 [Example 835]",
    "system under test": "human recombinant BACE1 (Homo sapiens (Human), UniProt P56817)",
    "result type": "IC50",
    "test value": 0.00305
  }
]
